- ASSAY COMMENT: Anti-tumour activity against M5076 sarcoma
- Format: in vivo, female B6D2F1 mice
- EXPERIMENTAL CONTEXT: mouse, in vivo, ip; read-out: maximum tolerated dose
METRIC NAME: MTD (mg/kg)
Numbers only, in mg/kg.

q: Quick one: MTD for Cc1c2cc[n+](C)cc2c(C)c2c1[nH]c1ccc(O)cc12 [elliptinium acetate, reference compound] ?
a: 2

###

- Test system: leukaemia P388
- ASSAY COMMENT: Anti-tumour activity against leukaemia P388 in vivo
- EXPERIMENTAL CONTEXT: 10 mg/kg, intraperitoneal, day 1
METRIC NAME: Survivors on d60/total no. of mice

q: Any idea what Survivors on d60/total no. of mice was measured for `Cc1c2ccnc(C(=O)NCCN(C)C)c2cc2c1[nH]c1ccc(O)cc12` ?
a: 3/10

q: Entry to check: COc1cccc2c1C(=O)c1c(O)c3c(c(O)c1C2=O)C[C@@](O)(C(=O)CO)C[C@@H]3O[C@H]1C[C@H](N)[C@H](O)[C@H](C)O1 [ADR, adriamycin, reference compound]
a: 2/10

q: Next entry: `Cc1c2ccnc(C(=O)NCCCN(C)C)c2cc2c3cc(O)ccc3n(C)c12`
a: 0/10

***
q: What does the record list as Survivors on d60/total no. of mice for `Cc1c2ccnc(C(=O)NCCN(C)C)c2cc2c3cc(O)ccc3n(C)c12` ?
a: 1/10
